Just for reference, ChEMBL document CHEMBL1687903 is where these values come from.

System: NCI-H187
Test: Cytotoxicity against human NCI-H187 by resazurin microplate assay
Type: functional, cell-based
reported-property: log10 of IC50 (log10 of the value in µM)
Field: value | Transform: log10 | Quantity: IC50 | Unit: µM

Q: Return log10 of IC50 (reported value) for this compound: COc1ccc2c(c1)[nH]c1cc(OC)c(C=O)cc12
Result: 2.01

Q: Return log10 of IC50 (reported value) for this compound: CC(C)=CCc1c(O)c(C=O)cc2c1[nH]c1ccccc12
Result: 0.12

Q: Return log10 of IC50 (reported value) for this compound: CC1(C)C=Cc2c(ccc3[nH]c4cc(O)c(C=O)cc4c23)O1
Result: 0.88

Q: Return log10 of IC50 (reported value) for this compound: COC(=O)c1cc(O)c2[nH]c3ccccc3c2c1
Result: 1.98

Q: Return log10 of IC50 (reported value) for this compound: Cc1cc2c([nH]c3ccccc32)c2c1OC(C)(C)C=C2
Result: 1.35

Q: Return log10 of IC50 (reported value) for this compound: Cc1c2ccncc2c(C)c2c1[nH]c1ccccc12
Result: 0.44

Q: Return log10 of IC50 (reported value) for this compound: COc1ccc2c(c1)[nH]c1c(CC=C(C)C)c(O)c(C=O)cc12
Result: 0.23

Q: Return log10 of IC50 (reported value) for this compound: O=Cc1cc(O)c2[nH]c3ccccc3c2c1
Result: 1.28

Q: Return log10 of IC50 (reported value) for this compound: COc1ccc2c(c1)[nH]c1c(OC)cc(C=O)cc12
Result: 1.13
